# Tested on: PC-14
# MEASUREMENT PROTOCOL: relative viability (nuclei count vs DMSO), 5 days (fraction); higher = more cells survive
# CONDITION CONTEXT: first compound 0.4 µM
A collection of compounds and their measured relative viability

{"COMPOUND": "C[C@@H]1CN(CC(=O)Nc2ccc3c(c2)Cc2cccc(-c4cc(=O)cc(N5CCOCC5)o4)c2S3)C[C@H](C)O1 + CS(=O)(=O)N1CCN(Cc2cc3nc(-c4cccc5[nH]ncc45)nc(N4CCOCC4)c3s2)CC1 [Pictilisib] (partner 1 µM)", "TGT": "PC-14", "relative viability": 0.687}

Problem: Quick one: relative viability of COc1cc(N2CCC(C(N)=O)CC2)ccc1Nc1nc(N)c(Cl)c(Nc2ccccc2S(=O)(=O)C(C)C)n1 [HG-5-88-01] + Cc1nc(Nc2ncc(C(=O)Nc3c(C)cccc3Cl)s2)cc(N2CCN(CCO)CC2)n1 [Dasatinib] (partner 0.075 µM) ?
Solution: 0.0685

Reference source for all entries: the supplement of paper PMC10307832
